Catalogue of DC50 readings, one per entry.
tested-system: IRAK4 (Homo sapiens, UniProt Q9NWZ3)
Construct: endogenous in cells; host or cells: Karpas299
assay-method-text: IRAK4 Degradation Assay (Karpas299, HTRF/TR-FRET)
Type: cell-based
condition-notes: Karpas-299 cells, 24 h treatment; read-out: IRAK4 in Karpas-299 (24 h) DC50
Please give a number only; it is taken to be in nM.

CC(C)(O)C[C@H]1CN(CCc2cc(F)c([C@H]3CCC(=O)NC3=O)c(F)c2)CCN1[C@H]1CC[C@H](n2cc3cc(NC(=O)c4ccc5cc(C#N)cnn45)c(C(C)(C)O)cc3n2)CC1	0.6
COC[C@H]1CN([C@H]2CC[C@H](n3cc4cc(NC(=O)c5ccc6cc(C#N)cnn56)c(C(C)(C)O)cc4n3)CC2)CCN1C(=O)[C@@H]1CCN(c2cc(F)c(N3CCC(=O)NC3=O)c(F)c2)C1	1.6
CC(C)(O)c1cc2nn([C@H]3CC[C@H](N4CCN([C@H]5C[C@@H](c6ccc(N[C@H]7CCC(=O)NC7=O)cc6)C5)CC4)CC3)cc2cc1NC(=O)c1ccc2cc(C#N)cnn12	5

Query [2H]C([2H])([2H])Oc1cc2nn([C@H]3CC[C@H](N4CCN(C(=O)C5CN(c6cc(F)c(N7CCC(=O)NC7=O)c(F)c6)C5)CC4)CC3)cc2cc1NC(=O)c1cccc(C(F)(F)F)n1 yields DC50 of 1.8

Query COc1cc2nn([C@H]3CC[C@H](N4CCN(C(=O)C5CN(c6cc(F)c([C@H]7CCC(=O)NC7=O)c(F)c6)C5)CC4)CC3)cc2cc1NC(=O)c1ccc2cc(C#N)cnn12 yields DC50 of 0.2

###

tested-system: IRAK4 (Homo sapiens)
Construct: endogenous in cells; host or cells: Karpas299
assay-method-text: IRAK4 Degradation Assay (Karpas299, HTRF/TR-FRET)
Format: cell-based
condition-notes: Karpas-299 cells, 5 h treatment; read-out: IRAK4 in Karpas-299 (5 h) DC50
endpoint-name: DC50 (nM)
Please give a number only; it is taken to be in nM.

CC(C)(O)c1cc2nn(C3CCN(C4CCN(C(=O)C5CN(c6cc(F)c([C@H]7CCC(=O)NC7=O)c(F)c6)C5)CC4)CC3)cc2cc1NC(=O)c1ccc2cc(C#N)cnn12	1.6
COC[C@@H]1CN(CC2CN(c3cc(F)c([C@H]4CCC(=O)NC4=O)c(F)c3)C2)CCN1[C@H]1CC[C@H](n2cc3cc(NC(=O)c4ccc5cc(C#N)cnn45)c(C(C)(C)O)cc3n2)CC1	1.9
COC[C@H]1CN(CC2CN(c3cc(F)c([C@H]4CCC(=O)NC4=O)c(F)c3)C2)CCN1[C@H]1CC[C@H](n2cc3cc(NC(=O)c4ccc5cc(C#N)cnn45)c(C(C)(C)O)cc3n2)CC1	12
CC(C)(O)c1cc2nc(C3CCN(C4CCN(C(=O)[C@H]5CCN(c6ccc(N7CCC(=O)NC7=O)cc6)C5)CC4)CC3)cn2cc1NC(=O)c1cccc(C(F)(F)F)n1	41

As a next step, examine the compound that follows.
Query Cc1cc(C2CCC(=O)NC2=O)c(F)cc1[C@H]1C[C@@H](N2CCN([C@H]3CC[C@H](n4cc5cc(NC(=O)c6ccc7cc(C#N)cnn67)c(C(C)(C)O)cc5n4)CC3)CC2)C1 (some centres unmarked) yields DC50 of 5.4

###

tested-system: IRAK4 (Homo sapiens, UniProt Q9NWZ3)
Construct: endogenous in cells; host or cells: Karpas299
assay-method-text: IRAK4 Degradation Assay (Karpas299, HTRF/TR-FRET)
Format: cell-based
condition-notes: Karpas-299 cells, 5 h treatment; read-out: IRAK4 in Karpas-299 (5 h) DC50
Definition: the class of an entry is the range in bottom range = under 3 nM, center range = from 3 nM up to 5 nM, top range = 5 nM and over that contains its DC50.

CC(C)(O)c1cc2nn(C34CC(N5CCN(CCC6CCN(c7cc(F)c([C@H]8CCC(=O)NC8=O)c(F)c7)CC6)CC5)(C3)C4)cc2cc1NC(=O)c1ccc2cc(C#N)cnn12	center range
CC(C)(O)c1cc2nn(C34CCC(N5CCN(C6CCN(c7cc(F)c([C@H]8CCC(=O)NC8=O)c(F)c7)CC6)CC5)(CC3)CC4)cc2cc1NC(=O)c1ccc2cc(C#N)cnn12	center range
COc1cc2nn([C@H]3CC[C@H](CN4CCN(C(=O)[C@@H]5CCN(c6ccc(N7CCC(=O)NC7=O)cc6)C5)CC4)CC3)cc2cc1NC(=O)c1cccn(C2CC2)c1=O	top range
COC[C@H]1CN([C@H]2CC[C@H](n3cc4cc(NC(=O)c5ccc6cc(C#N)cnn56)c(C(C)(C)O)cc4n3)CC2)CCN1CC1CN(c2cc(F)c([C@H]3CCC(=O)NC3=O)c(F)c2)C1	center range
Cc1cc(-c2nc(C(=O)Nc3cn(-c4ccc(N5CCN(C(=O)[C@@H]6CCN(c7cc(F)c([C@H]8CCC(=O)NC8=O)c(F)c7)C6)CC5)nc4)nc3C(N)=O)co2)ccn1	top range

Query: In plain terms, what class is CC(C)(O)c1cc2nn(C34CC(N5CCN(CC6CN(c7cc(F)c([C@H]8CCC(=O)NC8=O)c(F)c7)C6)CC5)(C3)C4)cc2cc1NC(=O)c1ccc2cc(C#N)cnn12 ?
Response: bottom range

###

tested-system: IRAK4 (Homo sapiens)
Construct: endogenous in cells; host or cells: Karpas299
assay-method-text: IRAK4 Degradation Assay (Karpas299, HTRF/TR-FRET)
Type: cell-based
condition-notes: Karpas-299 cells, 24 h treatment; read-out: IRAK4 in Karpas-299 (24 h) DC50
Friendly reminder: DC50 below 0.8 nM is Y, at or above is N.

Example entries and their recorded answers appear below.
C[C@@H]1CN(CC2CN(c3cc(F)c([C@H]4CCC(=O)NC4=O)c(F)c3)C2)CCN1[C@H]1CC[C@H](n2cc3cc(NC(=O)c4ccc5cc(C#N)cnn45)c(C(C)(C)O)cc3n2)CC1	N
CC(C)(O)c1cc2nn([C@H]3CC[C@H](N4CCN(C(=O)C5CCN(c6ccc7c(c6)C(=O)N(C6CCC(=O)NC6=O)C7=O)CC5)CC4)CC3)cc2cc1NC(=O)c1ccc2cc(C#N)cnn12 (some centres unmarked)	N
COC[C@@H]1CN(C[C@@H]2CCN(c3cc(F)c([C@H]4CCC(=O)NC4=O)c(F)c3)C2)CCN1[C@H]1CC[C@H](n2cc3cc(NC(=O)c4ccc5cc(C#N)cnn45)c(C(C)(C)O)cc3n2)CC1	N

Continue with the next molecule.
Query: hey, is DC50 for C[C@H]1CN(C(=O)C2CN(c3cc(F)c([C@H]4CCC(=O)NC4=O)c(F)c3)C2)CCN1[C@H]1CC[C@H](n2cc3cc(NC(=O)c4ccc5cc(C#N)cnn45)c(C(C)(C)O)cc3n2)CC1 lower than 0.8 nM or not?
Response: Y

###

tested-system: IRAK4 (Homo sapiens)
Construct: endogenous in cells; host or cells: Karpas299
Sequence (Q9NWZ3 1-460): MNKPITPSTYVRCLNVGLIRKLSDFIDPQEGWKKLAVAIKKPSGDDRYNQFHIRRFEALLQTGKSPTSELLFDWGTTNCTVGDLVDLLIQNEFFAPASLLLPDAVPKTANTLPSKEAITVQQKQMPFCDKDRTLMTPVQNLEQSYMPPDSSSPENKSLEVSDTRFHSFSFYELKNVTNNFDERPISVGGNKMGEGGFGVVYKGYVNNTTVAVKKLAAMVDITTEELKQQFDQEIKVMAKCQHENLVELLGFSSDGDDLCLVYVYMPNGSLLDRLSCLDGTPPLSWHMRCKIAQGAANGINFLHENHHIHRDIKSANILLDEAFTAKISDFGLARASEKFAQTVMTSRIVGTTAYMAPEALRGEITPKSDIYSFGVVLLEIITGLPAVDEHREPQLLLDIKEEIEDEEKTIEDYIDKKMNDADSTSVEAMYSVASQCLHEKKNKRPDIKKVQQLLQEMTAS
assay-method-text: IRAK4 Degradation Assay (Karpas299, HTRF/TR-FRET)
Format: cell-based
condition-notes: Karpas-299 cells, 24 h treatment; maximum percentage of degradation; read-out: IRAK4 in Karpas-299 (24 h) Dmax (%)
endpoint-name: Dmax (%)
Please give a number only; it is taken to be in %.

Example molecules with recorded Dmax:
COc1cc2nn([C@H]3CC[C@H](N4CCN(C5CCN(c6cc(F)c([C@H]7CCC(=O)NC7=O)c(F)c6)CC5)CC4)CC3)cc2cc1NC(=O)c1ccc2cc(C#N)cnn12 [Example 338]	95
CC(C)(O)c1cc2nn([C@H]3CC[C@H](N4CCN(C5CCN(c6cc(F)c([C@H]7CCC(=O)NC7=O)c(F)c6)CC5)CC4)CC3)cc2cc1NC(=O)c1cccc(C(F)(F)F)n1 [Example 99]	99

As a next step, examine the molecule that follows.
Note to self: Dmax of O=C1CC[C@H](c2c(F)cc(N3CC(C(=O)N4CCN([C@H]5CC[C@H](n6cc(NC(=O)c7coc(-c8ccnc(NCC(F)(F)F)c8)n7)c(C(F)F)n6)CC5)CC4)C3)cc2F)C(=O)N1 [Example 16] with IRAK4 (Homo sapiens) was 98
